- assay.info: molar heat capacity at constant pressure
- protocol.conditions: 303.2 K; 101.3 kPa; Liquid; Small sample (50 mg) DSC
Recorded molar heat capacity at constant pressure values for a group of molecules are listed next.
Give the value, in units of J/K/mol, as a plain number.

# example entries with known answers
CNCCN(C)C :: 258.3
NCCN1CCNCC1 :: 289.7
Cc1ccccc1 :: 159.1

Let us move to another entry and its molar heat capacity at constant pressure.
Entry "O" has what molar heat capacity at constant pressure?
75.26

* * *

- assay.info: molar heat capacity at constant pressure
- protocol.conditions: 323.2 K; 101.3 kPa; Liquid; Small sample (50 mg) DSC
assay.readout: molar heat capacity at constant pressure (J/K/mol)
Give the value, in units of J/K/mol, as a plain number.

# example entries with known answers
O [water] :: 75.29
CNCCN(C)C [N,N,N'-trimethylethylenediamine] :: 269.2

Entry NCCN1CCNCC1 [N-(β-aminoethyl)piperazine)] has what molar heat capacity at constant pressure?
296.9

Entry Cc1ccccc1 [toluene] has what molar heat capacity at constant pressure?
164.1
